Where do these numbers come from? They come from ChEMBL document CHEMBL2321753.

system: Blood; test: Biodistribution in ddY mouse blood at 0.1 to 0.4 uCi, iv after 30 mins by gamma counting; type: ADME, organism-based; conditions: in vivo, 0.5 h
experimental_endpoint: Drug uptake (% ID/g)

CCN(CC)CCCC(C)Nc1c2ccc([125I])cc2nc2ccc(OC)cc12 (stereo unspecified); 0.73

(P) COc1ccc2nc3cc([125I])ccc3c(N)c2c1
(Q) COc1ccc2nc3cc([125I])ccc3c(OC)c2c1
(R) COc1c2ccc([125I])cc2nc2ccc(N(C)C)cc12
Put the compounds in ascending order of Drug uptake. Give the labels in the order specified. P, Q, R
(P: 1.46 % ID/g, Q: 2.59 % ID/g, R: 6.52 % ID/g)

(P) COc1ccc2nc3cc([125I])ccc3c(N(C)C)c2c1
(Q) CNc1c2ccc([125I])cc2nc2ccc(OC)cc12
Min Drug uptake? P | Q Lab note: record the label of whichever item you select. Q

* * *

system: Intestine; experiment: Biodistribution in ddY mouse intestine at 0.1 to 0.4 uCi, iv after 30 mins by gamma counting; assay type: ADME, organism-based; settings: in vivo, 0.5 h
experimental_endpoint: Drug uptake (% ID/g)

Field: example entries. Status: answers known.
COc1c2ccc([125I])cc2nc2ccc(N(C)C)cc12; 17.49
CCN(CC)CCCC(C)Nc1c2ccc([125I])cc2nc2ccc(OC)cc12 (stereo unspecified); 4.4
COc1ccc2nc3cc([125I])ccc3c(N)c2c1; 17.49
CNc1c2ccc([125I])cc2nc2ccc(OC)cc12; 19.47

(P) COc1ccc2nc3cc([125I])ccc3c(OC)c2c1
(Q) COc1ccc2nc3cc([125I])ccc3c(N(C)C)c2c1
Given P and Q , report the one with the higher recorded Drug uptake. Lab note: record the label of whichever item you select. P

* * *

tested on: Heart; assay: Biodistribution in ddY mouse heart at 0.1 to 0.4 uCi, iv after 2 mins by gamma counting; format: ADME, organism-based; conditions: in vivo
experimental_endpoint: Drug uptake (% ID/g)

Field: example entries. Status: answers known.
COc1c2ccc([125I])cc2nc2ccc(N(C)C)cc12; 5.83
COc1ccc2nc3cc([125I])ccc3c(N(C)C)c2c1; 16.28
COc1ccc2nc3cc([125I])ccc3c(N)c2c1; 4.46
CNc1c2ccc([125I])cc2nc2ccc(OC)cc12; 7.79

(A) COc1ccc2nc3cc([125I])ccc3c(OC)c2c1
(B) CCN(CC)CCCC(C)Nc1c2ccc([125I])cc2nc2ccc(OC)cc12 (stereo unspecified)
Min Drug uptake? A | B Lab note: record the label of whichever item you select. A
(A: 5.83 % ID/g, B: 15.53 % ID/g)

* * *

system: Spleen; assay: Biodistribution in ddY mouse spleen at 0.1 to 0.4 uCi, iv after 60 mins by gamma counting; format: ADME, organism-based; settings: in vivo, 1 h
experimental_endpoint: Drug uptake (% ID/g)

COc1ccc2nc3cc([125I])ccc3c(N)c2c1; 3.28
COc1ccc2nc3cc([125I])ccc3c(N(C)C)c2c1; 11.22

(a) COc1c2ccc([125I])cc2nc2ccc(N(C)C)cc12
(b) CNc1c2ccc([125I])cc2nc2ccc(OC)cc12
(c) CCN(CC)CCCC(C)Nc1c2ccc([125I])cc2nc2ccc(OC)cc12 (stereo unspecified)
(d) COc1ccc2nc3cc([125I])ccc3c(OC)c2c1
Order the 4 compounds from highest to lowest Drug uptake. Give the labels in the order specified. c, b, a, d
